# key: entry, value: IC50
Molecular target: human orexin-2 receptor (Homo sapiens (Human))
Sequence (O43614 whole entry): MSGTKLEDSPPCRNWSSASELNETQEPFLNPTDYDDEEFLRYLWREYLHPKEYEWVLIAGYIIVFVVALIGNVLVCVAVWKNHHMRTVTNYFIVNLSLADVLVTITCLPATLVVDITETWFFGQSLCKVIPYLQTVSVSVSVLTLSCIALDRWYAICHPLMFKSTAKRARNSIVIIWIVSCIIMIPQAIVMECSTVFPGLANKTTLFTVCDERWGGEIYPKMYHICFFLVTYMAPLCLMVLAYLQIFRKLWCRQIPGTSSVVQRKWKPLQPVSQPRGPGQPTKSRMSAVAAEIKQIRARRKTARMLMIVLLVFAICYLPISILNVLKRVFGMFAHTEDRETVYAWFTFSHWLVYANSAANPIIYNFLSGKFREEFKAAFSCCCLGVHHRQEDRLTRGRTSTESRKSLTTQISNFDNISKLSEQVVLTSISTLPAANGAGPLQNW
Experiment: In vitro assay: intracellular calcium measurements (FLIPR), antagonistic activity
Settings: CHO cells expressing human orexin-2 receptor, orexin-A agonist, geometric mean, read-out: IC50 Ox2
Express the result in nM but write the number alone.

molecule="Cc1cc(C(=O)N2CCC[C@@]2(C)c2nc3c(F)c(F)ccc3[nH]2)c(-n2nccn2)cc1C [Ex. 5.199]" endpoint_result=83

So, Cc1ccc(-c2sc(C)nc2C(=O)N2CC[C@H](C)[C@H]2c2nc3c(Cl)cccc3[nH]2)cc1 [Ex. 4.124] ? Its IC50 was 591

So, Cc1ccc(C(=O)N2CC[C@H](C)[C@H]2c2nc3cc(Cl)c(C)cc3[nH]2)c(-c2ncccn2)c1 [Ex. 4.130] ? Its IC50 was 128

So, COc1ccc2nc([C@@H]3C[C@@H](OC)CN3C(=O)c3ccc(C)cc3-n3nccn3)[nH]c2c1 [Ex. 3.21] ? Its IC50 was 33
